target: UniProt:Q72547; assay: Inhibition of HIV1 reverse transcriptase; conditions: read-out: log(1/IC50) (converted)
Observed property: IC50 (nM)
One number for each entry, in nM.

Take a look at these entries with their results.
CC(C)=CN1CCn2c(=O)[nH]c3cccc(c32)C1    12600
CC(C)=CN1Cc2c(C)ccc3[nH]c(=S)n(c23)C[C@@H]1C    13.6
CC(C)=CN1[C@@H](C)Cn2c(=S)[nH]c3cccc(c32)[C@@H]1C (relative stereo)    41.7
CC(C)=CN1Cc2cccc3[nH]c(=S)n(c23)[C@@H](C)[C@H]1C (relative stereo)    2240
S=c1[nH]c2cc(Cl)cc3c2n1CCN1CCCCC31 (configuration not stated)    2000
CC(C)=CN1Cc2c(C#N)ccc3[nH]c(=O)n(c23)C[C@@H]1C    1150

Provide each entry's IC50 from the list below.
1. CCCN1CCn2c(=O)[nH]c3cccc(c32)C1C (configuration not stated)
2. CC(C)=CN1CCn2c(=S)[nH]c3cc(Cl)cc(c32)C1
3. CC(C)=CN1Cc2c(F)ccc3[nH]c(=S)n(c23)C[C@@H]1C
4. CC(C)=CN1Cc2c(I)ccc3[nH]c(=S)n(c23)C[C@@H]1C
5. CC(C)=CN1CCn2c(=O)[nH]c3cc(Cl)cc(c32)C1C (configuration not stated)
6. CC(C)=CN1Cc2c(I)ccc3[nH]c(=O)n(c23)C[C@@H]1C
7. CC(C)=CN1Cc2cc(Cl)cc3[nH]c(=S)n(c23)C[C@@H]1C
8. CC(C)=CN1Cc2c(Cl)ccc3[nH]c(=S)n(c23)C[C@@H]1C

Response given:
[83200, 162, 5.82, 47.9, 162, 87.1, 42.7, 5.01]

For every item below, please supply its IC50.
1. CC(C)=CN1Cc2cc(Cl)cc3[nH]c(=O)n(c23)C[C@@H]1C
2. CC(C)=CN1[C@@H](C)Cn2c(=O)[nH]c3cc(Cl)cc(c32)[C@@H]1C
3. C#Cc1ccc2[nH]c(=O)n3c2c1CN(C=C(C)C)[C@@H](C)C3

Response given:
1. 182
2. 5010
3. 437

----------
molecular target: UniProt Q72547; test: Inhibition of HIV1 reverse transcriptase; conditions: read-out: log(1/IC50) (converted)
Observed property: IC50 (µM)
Answers are plain numbers, in µM.

As a guide, the following entries are already answered.
CC(C)=CN1CCn2c(=S)[nH]c3cc(Cl)cc(c32)C1C (stereo unspecified)    0.0229
C[C@H]1Cn2c(=S)[nH]c3cc(Cl)cc(c32)CN1CC1CC1    0.0339
CC(C)=CN1Cc2cccc3[nH]c(=O)n(c23)[C@@H](C)[C@H]1C (relative stereo)    56.2
C=C(CC)N1CCn2c(=O)[nH]c3cccc(c32)C1    37.2
CC(C)=CN1Cc2c(C(N)=O)ccc3[nH]c(=O)n(c23)C[C@@H]1C    6.35

Challenge: What value of IC50 has been recorded for this entry: C=C(C)N1Cc2cccc3[nH]c(=O)n(c23)CC1(C)C
Response given: 22.9
